Taken from ChEMBL document CHEMBL3232972.

tested on: Plasmodium falciparum; experiment: Antimalarial activity against erythrocytic stages of chloroquine-sensitive Plasmodium falciparum 3D7 infected in human O-positive erythrocytes after 48 hrs by SYBR Green-I fluorescence-based method; type: functional, organism-based; settings: 3D7, 48 h
Readout name: IC50

Quick one: IC50 of O=C(NCc1cccc(C(F)(F)F)c1)c1cnc2ccccn2c1=O ? 65 µM

Entry to check: CC(C)C[C@@H](C#N)NC(=O)Nc1cnc2ccccn2c1=O > 100 µM

Now the same for COc1ccc(-c2ccc3ncc(C(=O)NCc4cccc(F)c4)c(=O)n3c2)cc1 > 100 µM

# repeat for N#C[C@H](Cc1ccccc1)NC(=O)Nc1cnc2ccccn2c1=O > 100 µM

Param item: O=C(Nc1cnc2ccc(Cl)cn2c1=O)OCc1ccccn1 > 100 µM

Then this compound: O=C(NCc1ccc(C(F)(F)F)cc1)c1cnc2ccccn2c1=O 37 µM

Also O=C(NC1CC1)c1cccnc1N1CCN(C(=O)Nc2cnc3ccccn3c2=O)CC1 , if possible. > 100 µM

Ok, now CC(C)N(Cc1ccccc1)C(=O)Nc1cnc2ccccn2c1=O 70 µM

Now consider COc1ccc(CNC(=O)c2cnc3ccccn3c2=O)cc1 . > 100 µM

And NC(=O)[C@H](Cc1ccccc1)NC(=O)Nc1cnc2ccccn2c1=O ? > 100 µM

Another compound: O=C(NCc1ccccc1C(F)(F)F)c1cnc2ccccn2c1=O > 100 µM

Do the same for CCCCCOc1cccnc1NC(=O)c1cnc2ccccn2c1=O please > 100 µM

Another compound to look at: COc1ccc(-c2ccc3ncc(C(=O)NCc4ccc(C(F)(F)F)cc4)c(=O)n3c2)cc1 > 100 µM

What do you get for O=C(NCc1cccc(F)c1)c1cnc2ccccn2c1=O ? 43 µM

Let us now turn to O=C(NCCC(c1ccccc1)c1ccccc1)Nc1cnc2ccccn2c1=O > 100 µM

Can you handle Cc1ccn2c(=O)c(C(=O)NCc3ccc(C(F)(F)F)cc3)cnc2c1 next? 70 µM

Consider next the compound O=C(NCc1ccc(C(F)(F)F)cc1)Nc1cnc2ccc(Cl)cn2c1=O in the same way. > 100 µM

Repeat with O=C(NCc1cccc(C(F)(F)F)c1)Nc1cnc2ccc(Cl)cn2c1=O > 100 µM

Consider next the compound O=C(Nc1cnc2ccc(Cl)cn2c1=O)N1CCN(C(=O)c2ccco2)CC1 in the same way. > 100 µM

Another compound to check: CC(C)C[C@H](NC(=O)Nc1cnc2ccccn2c1=O)C(N)=O > 100 µM

Next record, please: Cc1ccn2c(=O)c(NC(=O)N(Cc3ccccc3)C(C)C)cnc2c1 > 100 µM

Would you mind doing COc1ccc(-c2ccc3ncc(C(=O)NCC4CCCO4)c(=O)n3c2)cc1 (configuration not stated) as well? 100 µM

Param item: CC(C)N(Cc1ccccc1)C(=O)Nc1cnc2ccc(Cl)cn2c1=O > 100 µM

Try this compound next: O=C(NCc1ccc(F)cc1F)c1cnc2ccccn2c1=O 59 µM

Param item: Cc1noc(C)c1NC(=O)c1cnc2ccccn2c1=O > 100 µM

Query O=C(Nc1ncccc1OCc1ccccc1)Nc1cnc2ccccn2c1=O next > 100 µM

Also need COCCNC(=O)Nc1cnc2ccc(Cl)cn2c1=O , thanks. > 100 µM

Please give the result for COc1ccc(C(C)NC(=O)c2cnc3ccccn3c2=O)cc1 (configuration not stated) too. > 100 µM

Also O=C(Nc1cnc2ccccn2c1=O)OCc1cccc(F)c1 , if possible. 33 µM

Cool, now CC(C)(C)OC(=O)N1CCN(C(=O)Nc2cnc3ccc(Cl)cn3c2=O)CC1 > 100 µM

Moving on to the next compound: O=C(NCc1ccc(C(F)(F)F)cc1)Nc1cnc2ccccn2c1=O > 100 µM

Same thing, different compound: O=C(Nc1cnc2ccc(Cl)cn2c1=O)OCc1cccnc1 > 100 µM

Further, for O=C(Nc1cnc2ccccn2c1=O)OCc1ccc2c(c1)OCO2 ? > 100 µM

What would you report for O=C(NC1CCN(Cc2ccccc2)CC1)c1cnc2ccccn2c1=O ? > 100 µM

Quick one: O=C(NCc1cccs1)Nc1cnc2ccc(Cl)cn2c1=O > 100 µM

Ok, now O=C(c1cnc2ccccn2c1=O)N(Cc1ccccc1F)C1CC1 > 100 µM

Further, for O=C(NCc1ccccc1C(F)(F)F)Nc1cnc2ccccn2c1=O ? 100 µM

Next entry: CCOC(=O)[C@H](Cc1ccccc1)NC(=O)Nc1cnc2ccccn2c1=O > 100 µM

What do you have for O=C(Nc1cnc2ccc(Cl)cn2c1=O)OCc1cccc(F)c1 ? > 100 µM

Same again, this time with O=C(NCCN1CCOCC1)c1cnc2ccccn2c1=O > 100 µM

Try the compound O=C(Nc1ncccc1OCc1ccccc1)c1cnc2ccccn2c1=O 100 µM

Let us now turn to O=C(NCc1ccccc1C(F)(F)F)Nc1cnc2ccc(Cl)cn2c1=O > 100 µM
